- System: P388 Leukemia
- test-method-notes: Minimum effective dose in P388 tumor bearing mice
- Type: in vivo
- experimental-parameters: MTD in normal BDF1 mice / MED in P388 tumor bearing mice
*1 amine or outer side, *2 acyl side, *3 side chain or, on linkers, in order; H or OH if unused. Where a SMILES comes first, the peptide text is derived from it. Bridges are numbered along the chain shown (N, C = ends). Roman numbers before positions name the chains, in order. [ ]: non-standard residue; d: D form. Actinocin(9to1) = Cc1c2oc3c(C)ccc(C(=O)[*:1])c3nc-2c(C(=O)[*:2])c(N)c1=O; NMeV = CN[C@H](C(=O)O)C(C)C; Sar = CNCC(=O)O
measure-name: therapeutic index MTD/MED
Reply with just the number.

// worked examples, therapeutic index MTD/MED included
compound	therapeutic index MTD/MED
Cc1c2oc3c(C)c4oc(-c5ccccc5)nc4c(C(=O)N[C@@H]4C(=O)N[C@H](C(C)C)C(=O)N5CCC[C@H]5C(=O)N(C)CC(=O)N(C)[C@@H](C(C)C)C(=O)O[C@@H]4C)c3nc-2c(C(=O)N[C@@H]2C(=O)N[C@H](C(C)C)C(=O)N3CCC[C@H]3C(=O)N(C)CC(=O)N(C)[C@@H](C(C)C)C(=O)O[C@@H]2C)c(N)c1=O	67
Cc1c2oc3c(C)ccc(C(=O)N[C@@H]4C(=O)N[C@H](C(C)C)C(=O)N5CCC[C@H]5C(=O)N(C)CC(=O)N(C)[C@@H](C(C)C)C(=O)O[C@@H]4C)c3nc-2c(C(=O)N[C@@H]2C(=O)N[C@H](C(C)C)C(=O)N3CCC[C@H]3C(=O)N(C)CC(=O)N(C)[C@@H](C(C)C)C(=O)O[C@@H]2C)c(N)c1=O [AMD (1), Actinomycin D] (I: T[dV]P[Sar][NMeV] / II: T[dV]P[Sar][NMeV]; ester I:1-I:C, II:1-II:C; linker I:N-II:N via Actinocin(9to1))	4
Cc1c2oc3c(C)c4oc(CC(=O)NCCCCN)nc4c(C(=O)N[C@@H]4C(=O)N[C@H](C(C)C)C(=O)N5CCC[C@H]5C(=O)N(C)CC(=O)N(C)[C@@H](C(C)C)C(=O)O[C@@H]4C)c3nc-2c(C(=O)N[C@@H]2C(=O)N[C@H](C(C)C)C(=O)N3CCC[C@H]3C(=O)N(C)CC(=O)N(C)[C@@H](C(C)C)C(=O)O[C@@H]2C)c(N)c1=O	70
Cc1nc2c(C(=O)N[C@@H]3C(=O)N[C@H](C(C)C)C(=O)N4CCC[C@H]4C(=O)N(C)CC(=O)N(C)[C@@H](C(C)C)C(=O)O[C@@H]3C)c3nc4c(C(=O)N[C@@H]5C(=O)N[C@H](C(C)C)C(=O)N6CCC[C@H]6C(=O)N(C)CC(=O)N(C)[C@@H](C(C)C)C(=O)O[C@@H]5C)c(N)c(=O)c(C)c-4oc3c(C)c2o1	60

# context switch: different compound, same therapeutic index MTD/MED
Task: Which therapeutic index MTD/MED is listed for Cc1c2oc3c(C)c(O)c(N)c(C(=O)N[C@@H]4C(=O)N[C@H](C(C)C)C(=O)N5CCC[C@H]5C(=O)N(C)CC(=O)N(C)[C@@H](C(C)C)C(=O)O[C@@H]4C)c3nc-2c(C(=O)N[C@@H]2C(=O)N[C@H](C(C)C)C(=O)N3CCC[C@H]3C(=O)N(C)CC(=O)N(C)[C@@H](C(C)C)C(=O)O[C@@H]2C)c(N)c1=O ?
Output: 96
